Field: IC50. Provide a value for each of the molecules that follow.
target: p110α/p85α (Homo sapiens (Human), UniProt P42336); assay: PI 3-Kinase (human) HTRF assay, p110α/p85α; assay type: biochemical; settings: read-out: PI3K α IC50
Sequence (P42336 whole entry): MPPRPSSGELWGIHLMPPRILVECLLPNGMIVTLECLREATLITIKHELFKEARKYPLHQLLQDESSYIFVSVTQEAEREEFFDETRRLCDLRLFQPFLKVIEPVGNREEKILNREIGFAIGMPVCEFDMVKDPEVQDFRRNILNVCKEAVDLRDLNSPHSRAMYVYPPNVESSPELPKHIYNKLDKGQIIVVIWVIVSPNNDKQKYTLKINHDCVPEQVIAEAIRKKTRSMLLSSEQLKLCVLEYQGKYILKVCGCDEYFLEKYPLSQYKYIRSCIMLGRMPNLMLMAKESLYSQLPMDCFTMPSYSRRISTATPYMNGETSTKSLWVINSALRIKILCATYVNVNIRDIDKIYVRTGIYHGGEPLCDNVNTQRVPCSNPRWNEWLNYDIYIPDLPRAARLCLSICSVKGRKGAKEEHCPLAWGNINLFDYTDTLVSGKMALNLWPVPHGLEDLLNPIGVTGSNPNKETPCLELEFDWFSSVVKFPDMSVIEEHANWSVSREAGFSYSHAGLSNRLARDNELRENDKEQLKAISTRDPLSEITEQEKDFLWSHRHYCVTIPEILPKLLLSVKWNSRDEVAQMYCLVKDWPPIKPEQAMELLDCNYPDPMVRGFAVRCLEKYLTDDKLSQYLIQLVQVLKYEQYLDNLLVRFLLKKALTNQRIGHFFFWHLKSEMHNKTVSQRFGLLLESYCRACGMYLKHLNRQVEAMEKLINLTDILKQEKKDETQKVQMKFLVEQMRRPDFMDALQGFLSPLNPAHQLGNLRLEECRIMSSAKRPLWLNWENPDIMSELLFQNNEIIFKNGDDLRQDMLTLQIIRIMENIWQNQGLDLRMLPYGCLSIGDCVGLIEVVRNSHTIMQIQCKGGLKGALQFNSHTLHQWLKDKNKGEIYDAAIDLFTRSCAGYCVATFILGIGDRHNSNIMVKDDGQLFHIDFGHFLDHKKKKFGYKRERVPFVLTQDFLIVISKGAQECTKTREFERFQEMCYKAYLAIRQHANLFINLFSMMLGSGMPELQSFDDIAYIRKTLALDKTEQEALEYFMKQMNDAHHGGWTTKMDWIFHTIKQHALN
Sequence (P27986 whole entry partner): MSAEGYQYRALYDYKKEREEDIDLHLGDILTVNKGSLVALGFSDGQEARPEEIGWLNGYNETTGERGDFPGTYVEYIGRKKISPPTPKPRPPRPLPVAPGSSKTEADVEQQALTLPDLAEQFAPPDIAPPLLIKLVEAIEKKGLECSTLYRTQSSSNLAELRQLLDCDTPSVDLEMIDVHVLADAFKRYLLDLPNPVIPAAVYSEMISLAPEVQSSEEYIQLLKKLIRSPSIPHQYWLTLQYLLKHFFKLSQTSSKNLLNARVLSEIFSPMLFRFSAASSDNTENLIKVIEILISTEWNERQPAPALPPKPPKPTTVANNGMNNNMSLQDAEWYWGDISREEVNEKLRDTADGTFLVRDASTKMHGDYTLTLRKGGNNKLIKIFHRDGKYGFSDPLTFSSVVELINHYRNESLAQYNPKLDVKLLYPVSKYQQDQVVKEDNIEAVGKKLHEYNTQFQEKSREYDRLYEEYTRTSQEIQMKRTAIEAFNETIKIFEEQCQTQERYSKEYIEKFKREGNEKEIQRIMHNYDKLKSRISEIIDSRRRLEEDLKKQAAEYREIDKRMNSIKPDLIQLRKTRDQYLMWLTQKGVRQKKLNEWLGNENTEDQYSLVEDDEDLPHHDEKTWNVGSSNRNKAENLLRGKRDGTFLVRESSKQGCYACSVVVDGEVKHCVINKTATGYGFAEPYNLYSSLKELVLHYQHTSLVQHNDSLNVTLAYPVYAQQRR

Worked cases, IC50 given:
molecule: NCC(=O)N1CCN(c2cnc3ccc(-c4ccc5oc(N)nc5c4)cc3n2)CC1 [compound 192]
test readout: IC50
test result: < 100 nM
--
molecule: CN1CCC(N(C)c2cnc3ccc(-c4ccc5oc(N)nc5c4)cc3n2)CC1 [compound 151]
test readout: IC50
test result: < 100 nM
--
molecule: CN1CC(C(=O)N2CCC(Nc3ncnc4ccc(-c5ccc6oc(N)nc6c5)cc34)CC2)C1 [compound 138]
test readout: IC50
test result: < 100 nM
--
molecule: Nc1nc2cc(-c3ccc4ncc(-c5ccnc(N6CCOCC6)c5)nc4c3)ccc2o1 [compound 150]
test readout: IC50
test result: < 1000 nM
--
molecule: CNC(=O)CN1CCN(c2cnc3ccc(-c4ccc5oc(N)nc5c4)cc3n2)CC1 [compound 120]
test readout: IC50
test result: < 100 nM
--
molecule: CS(=O)(=O)CCN1CCN(c2cnc3ccc(-c4ccc5oc(N)nc5c4)cc3n2)CC1 [compound 90]
test readout: IC50
test result: < 100 nM
--
molecule: CN1CCC(n2cnc3ccc(-c4ccc5oc(N)nc5c4)cc3c2=O)CC1 [compound 36]
test readout: IC50
test result: < 100 nM
--
molecule: Nc1nc2cc(-c3ccc4ncc(N5CCN(C(=O)[C@@H]6CCCN6)CC5)nc4c3)ccc2o1 [compound 121]
test readout: IC50
test result: < 100 nM
--
molecule: CC(C)N1CCC(n2cnc3ccc(-c4ccc5oc(N)nc5c4)cc3c2=O)CC1 [compound 74]
test readout: IC50
test result: < 100 nM
--
molecule: Nc1nc2cc(-c3ccc4ncc(N5CCCCC5)nc4c3)ccc2o1 [compound 175]
test readout: IC50
test result: < 100 nM

For each listed entry, give its IC50.
1. Nc1nc2cc(-c3ccc4nccc(NCCN5CCOCC5)c4c3)ccc2o1 [compound 33]
2. Nc1nc2cc(-c3ccc4ncc(-c5ccccc5)nc4c3)ccc2o1 [compound 180]
3. Nc1nc2cc(-c3ccc4ncc(N5CCC(N)CC5)nc4c3)ccc2o1 [compound 168]

a:
1. < 100 nM
2. < 1000 nM
3. < 100 nM

====

molecular target: p110γ (Homo sapiens (Human), UniProt P48736); assay: PI 3-Kinase (human) HTRF assay, p110γ; format: biochemical; settings: read-out: PI3K γ IC50
Sequence (P48736 whole entry): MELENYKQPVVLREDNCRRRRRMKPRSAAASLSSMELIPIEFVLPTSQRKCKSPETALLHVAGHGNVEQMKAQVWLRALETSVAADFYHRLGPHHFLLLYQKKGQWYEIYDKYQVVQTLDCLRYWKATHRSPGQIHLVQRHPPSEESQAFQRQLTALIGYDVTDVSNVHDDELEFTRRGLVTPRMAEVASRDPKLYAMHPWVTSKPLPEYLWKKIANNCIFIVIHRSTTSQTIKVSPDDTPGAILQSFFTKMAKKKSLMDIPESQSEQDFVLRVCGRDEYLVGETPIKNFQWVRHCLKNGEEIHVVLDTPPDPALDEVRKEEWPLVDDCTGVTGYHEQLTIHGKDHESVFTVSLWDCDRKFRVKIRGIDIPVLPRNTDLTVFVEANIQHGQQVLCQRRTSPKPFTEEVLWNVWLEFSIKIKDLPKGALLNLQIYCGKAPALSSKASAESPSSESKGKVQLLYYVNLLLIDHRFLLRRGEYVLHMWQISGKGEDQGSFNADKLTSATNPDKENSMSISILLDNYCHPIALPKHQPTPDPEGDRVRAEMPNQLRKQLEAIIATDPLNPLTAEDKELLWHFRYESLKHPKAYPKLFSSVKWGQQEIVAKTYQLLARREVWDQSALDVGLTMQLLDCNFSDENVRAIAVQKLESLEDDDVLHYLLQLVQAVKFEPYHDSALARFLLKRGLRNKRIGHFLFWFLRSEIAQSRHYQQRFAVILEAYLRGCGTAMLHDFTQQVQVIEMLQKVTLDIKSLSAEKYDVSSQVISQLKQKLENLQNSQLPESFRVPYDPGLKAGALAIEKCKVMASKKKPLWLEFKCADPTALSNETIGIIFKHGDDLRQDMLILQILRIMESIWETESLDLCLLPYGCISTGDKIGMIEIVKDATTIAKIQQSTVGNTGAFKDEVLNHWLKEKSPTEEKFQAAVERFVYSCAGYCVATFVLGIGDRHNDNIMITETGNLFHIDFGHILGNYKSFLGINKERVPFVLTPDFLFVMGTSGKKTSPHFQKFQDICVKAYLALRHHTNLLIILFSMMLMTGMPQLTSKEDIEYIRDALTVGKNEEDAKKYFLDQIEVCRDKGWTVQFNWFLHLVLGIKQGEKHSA
pIC50: −log10 of the molar value.
test readout: pIC50

compound: N#Cc1cnc2ccc(-c3ccc4oc(N)nc4c3)cc2c1-c1ccncc1
test result: > 7.00
--
compound: CC(=O)Nc1nc2ccc(-c3ccc4nccc(-c5ccncc5)c4c3)cc2s1
test result: > 6.00

For each listed entry, give its pIC50.
1. Cn1cc(-c2ccnc3ccc(-c4ccc5oc(N)nc5c4)cc23)cn1
2. COC(=O)N1CCN(c2cnc3ccc(-c4ccc5oc(N)nc5c4)cc3n2)CC1
3. CN1CCN(c2cnc3ccc(-c4ccc5oc(N)nc5c4)cc3n2)CC1
4. Nc1nc2cc(-c3ccc4ncc(N5CCNCC5)nc4c3)ccc2o1
5. Nc1nc2cc(-c3ccc4ncc(-c5ccnc(N6CCOCC6)c5)n4c3)ccc2o1
6. Nc1nc2cc(-c3ccc4ncc(C(=O)N5CCC(O)CC5)n4c3)ccc2o1

a:
> 7.00
> 7.00
> 6.00
> 6.00
> 7.00
> 5.00

For each listed entry, give its pIC50.
1. CC1CN(c2cnc3ccc(-c4ccc5oc(N)nc5c4)cc3n2)CCO1 (stereo not drawn)
2. CC(=O)N1CCC(Nc2ncnc3ccc(-c4ccc5oc(N)nc5c4)cc23)CC1
3. Nc1nc2cc(-c3cn4c(-c5ccncc5)cnc4cn3)ccc2o1
4. CN1CCN(c2ccc(-c3cnc4ccc(-c5ccc6oc(N)nc6c5)cn34)cn2)CC1
5. Nc1nc2cc(-c3ccc4ncc(N5CCOCC5)nc4c3)ccc2s1
6. Nc1nc2cccc(-c3ccc4nccc(-c5ccncc5)c4c3)c2s1
7. Nc1nc2cc(-c3ccc4ncc(N[C@H]5CC[C@H](O)CC5)nc4c3)ccc2o1

a:
1. > 7.00
2. > 7.00
3. > 6.00
4. > 6.00
5. > 6.00
6. > 7.00
7. > 7.00

For each listed entry, give its pIC50.
1. Nc1nc2cc(-c3ccc4nccc(CCN5CCOCC5)c4c3)ccc2o1
2. Nc1nc2cc(-c3cn4c(-c5cn[nH]c5)cnc4cn3)ccc2o1
3. Nc1nc2cc(-c3ccc4ncc(C(=O)N5CCS(=O)(=O)CC5)n4c3)ccc2o1

a:
1: > 7.00; 2: > 6.00; 3: > 5.00

Hey, just so you know, these numbers are from patent US11547697B2.
